Structures can show the parent of a compound that is named as a salt.
// reported melting point for each item listed

Known results for compounds:
COc1cc(CN2CCCC[C@H]2C(=O)O)ccc1OCc1cccc(-c2cccc(COc3ccc(CN4CCCC[C@H]4C(=O)O)cc3OC)c2C)c1C [Example 20]: 192 to 196 °C
C#Cc1cc(CN2CCCC[C@H]2C(=O)O)ccc1OCc1cccc(-c2cccc(COc3ccc(CN4CCCC[C@H]4C(=O)O)cc3C#C)c2C)c1C (as salt: trifluoroacetic acid salt) [Example 26, di-trifluoroacetic acid salt]: 175 °C (dec.)
CCc1cc(CN2CCCC[C@H]2C(=O)O)ccc1OCc1cccc(-c2cccc(COc3ccc(CN4CCCC[C@H]4C(=O)O)cc3CC)c2C)c1C (as salt: trifluoroacetic acid salt) [Example 27, di-trifluoroacetic acid salt]: 131 to 135 °C
Cc1c(COc2ccc(CN3CCCC[C@H]3C(=O)O)cc2C(F)F)cccc1-c1cccc(COc2ccc(CN3CCCC[C@H]3C(=O)O)cc2C(F)F)c1C (as salt: trifluoroacetic acid salt) [Example 29, di-trifluoroacetic acid salt]: 142 to 146 °C

Measured melting point, CC(=O)NCCNCc1ccc(OCc2cccc(-c3cccc(COc4ccc(CNCCNC(C)=O)cc4Br)c3C)c2C)c(Br)c1 [Example 6] : 95 to 99 °C

Form: compound = Cc1c(COc2ccc(CNC(C)(CO)CO)cc2Br)cccc1-c1cccc(COc2ccc(CNC(C)(CO)CO)cc2Br)c1C (as salt: trifluoroacetic acid salt) [Example 33, di-trifluoroacetic acid salt] ; melting point = 134 to 138 °C
